- Test system: HT29 colon
- Test summary: NCI tumour cell line growth inhibition, 48 h
compounds and their reported TGI
Write the value in µM as a bare number.

Below, 3 compounds whose answers are already recorded.
{"Compound": "C=CCN(N=O)C(=O)N(CCC)CCCCC(NC(C)=O)C(=O)NCc1ccccc1 (stereo not drawn)", "Assay metric": "TGI", "Units": "µM", "Quantitative readout": 83.6}
{"Compound": "COc1ccc(/C(Cl)=C(\\C=O)c2ccc(Cl)c(Cl)c2)cc1OC", "Assay metric": "TGI", "Units": "µM", "Quantitative readout": 8.77}
{"Compound": "C=C[C@]1(C)C=C2C(=O)[C@@]3(O)OC(=O)[C@@]4(CCCC(C)(C)[C@H]34)[C@@]2(O)CC1", "Assay metric": "TGI", "Units": "µM", "Quantitative readout": 6.86}

Task: May I ask what TGI has been recorded for C[C@]12CCC(=O)C=C1CC[C@@H]1[C@@H]2CC[C@]2(C)C(=O)/C(=C/c3cccc(OCCN4CCOCC4)c3)C[C@@H]12 ?
Output: 16.2
